CK1δ (Homo sapiens (Human)) pIC50 data
Sequence (P48730 whole entry): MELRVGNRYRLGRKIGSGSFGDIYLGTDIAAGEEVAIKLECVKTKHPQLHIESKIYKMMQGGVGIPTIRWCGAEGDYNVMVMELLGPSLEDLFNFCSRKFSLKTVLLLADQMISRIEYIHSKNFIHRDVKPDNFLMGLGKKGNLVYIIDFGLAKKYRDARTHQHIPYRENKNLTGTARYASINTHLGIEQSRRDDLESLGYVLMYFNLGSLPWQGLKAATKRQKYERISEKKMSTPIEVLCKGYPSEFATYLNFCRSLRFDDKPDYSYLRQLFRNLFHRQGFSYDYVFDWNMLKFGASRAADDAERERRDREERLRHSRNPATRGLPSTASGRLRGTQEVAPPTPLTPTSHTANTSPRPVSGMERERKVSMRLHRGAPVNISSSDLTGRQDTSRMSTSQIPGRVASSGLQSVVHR
Just so you know, pIC50 here is -log10 of the concentration in molar units; reply with that number alone.

These recorded examples may help you get a feel for the data.
{"columns": ["Smiles record", "pIC50"],
 "data": [
  ["Cn1cc(-c2ccc3nc(NC(=O)c4ccccc4)c(Cl)n3n2)c(-c2ccc(F)cc2)n1", 7.61],
  ["Cn1nc(-c2ccc(F)cc2)c(-c2ccc3nc(NC(=O)c4ccnc(F)c4)cn3n2)c1N1CCN(CCC#N)CC1", 9.22],
  ["COCC(=O)N1CCC(c2c(-c3ccc4nc(NC(=O)c5ccnc(F)c5)cn4n3)c(-c3ccc(F)cc3)nn2C)CC1", 9.52]
]}

As a next step, examine the compound that follows.
Query :: pIC50 lookup needed for Cn1nc(-c2ccc(F)cc2)c(-c2ccc3nc(NC(=O)c4ccnc(F)c4)cn3n2)c1N1CCOCC1 , thanks.
Result :: 8.70
